pKi: −log10 of the molar value.
// Adenosine receptor A2a (Rattus norvegicus) pKi records
parameter_measured: pKi

{"columns": ["compound", "meas_value"],
 "data": [
  ["CCOC(=O)c1c(C)nc(-c2ccccc2)c(C(=O)OCC)c1/C=C/c1ccccc1", 5.62],
  ["CCOC(=O)C1=C(C)N=C(C)/C(=C(/O)OCC)C1/C=C/c1ccccc1 (configuration not stated)", 5.03]
]}

---

- subject_of_test: UniProt P30543
- measurement_description: Binding affinity for Adenosine A2A receptor in rat striatal membrane with [3H]-CGS- 21680
- Format: cell membranes
- Parameters: concentration or dose not given beside the values
- conditions: Striatum
Entries and their Inhibition (at concentration M) values follow.

{"columns": ["molecule", "modifier_sign", "Inhibition (at concentration M) / %"],
 "data": [
  ["CCOC(=O)C1=C(c2ccccc2)N=C(C)/C(=C(/O)OCC)C1C=C(c1ccccc1)c1ccccc1 (stereo unspecified)", "=", 12],
  ["CCOC(=O)C1=C(c2ccccc2)N=C(C)/C(=C(/O)OCC)C1C#Cc1ccccc1 (stereo unspecified)", "=", 26],
  ["CCO/C(O)=C1\\C(C)=NC(c2ccccc2)=C(C(=O)OCc2ccccc2)C1C#Cc1ccccc1 (stereo unspecified)", "<", 10],
  ["CCOC(=O)C1=C(c2ccc(C)cc2)N=C(C)/C(=C(/O)OCC)C1/C=C/c1ccccc1 (stereo unspecified)", "=", 37],
  ["CCOC(=O)C1=C(c2ccccc2)N=C(C)/C(=C(/O)OCc2ccccc2)C1C#Cc1ccccc1 (stereo unspecified)", "<", 10],
  ["CCO/C(O)=C1\\C(C)=NC(c2ccccc2)=C(C(=O)OCc2ccccc2)C1/C=C/c1ccccc1 (stereo unspecified)", "=", 15]
]}

---

- subject_of_test: Adenosine receptor A2a (Rattus norvegicus) (UniProt P30543)
- Sequence (P30543 whole entry): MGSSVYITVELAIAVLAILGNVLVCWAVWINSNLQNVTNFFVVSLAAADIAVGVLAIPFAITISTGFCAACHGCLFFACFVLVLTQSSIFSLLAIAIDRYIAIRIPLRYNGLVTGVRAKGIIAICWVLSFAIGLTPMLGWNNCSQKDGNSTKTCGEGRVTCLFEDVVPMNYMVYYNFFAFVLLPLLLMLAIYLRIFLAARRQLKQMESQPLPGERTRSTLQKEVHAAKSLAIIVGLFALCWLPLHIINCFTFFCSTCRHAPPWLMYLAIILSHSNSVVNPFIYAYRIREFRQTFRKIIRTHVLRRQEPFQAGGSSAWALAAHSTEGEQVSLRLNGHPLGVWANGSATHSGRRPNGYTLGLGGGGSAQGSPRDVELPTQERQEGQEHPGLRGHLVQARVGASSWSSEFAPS
- measurement_description: Inhibition of [3H]-CGS- 21680 binding to Adenosine A2A receptor of rat striatal membrane
- Design: concentration or dose not given beside the values
- conditions: concentration not given here
Recorded inhibition values for a group of compounds are listed next.
parameter_measured: inhibition

{"columns": ["compound", "parameter_measured", "meas_value"],
 "data": [
  ["CCOC(=O)C1=C(c2ccsc2)N=C(C)/C(=C(/O)OCC)C1/C=C/c1ccccc1 (stereo unspecified)", "inhibition", "< 10%"],
  ["CCO/C(O)=C1\\C(C)=NC(c2ccccc2)=C(C(=O)OCc2ccccc2)C1/C=C/c1ccc([N+](=O)[O-])cc1 (stereo unspecified)", "inhibition", "< 10%"],
  ["CCOC(=O)C1=C(c2ccc(OC)cc2)N=C(C)/C(=C(/O)OCC)C1/C=C/c1ccccc1 (stereo unspecified)", "inhibition", "< 10%"],
  ["CCOC(=O)c1c(C)nc(-c2ccccc2)c(C(=O)OCc2ccccc2)c1C#Cc1ccccc1", "inhibition", "43%"],
  ["CCOC(=O)C1=C(c2ccc(Cl)cc2)N=C(C)/C(=C(/O)OCC)C1/C=C/c1ccccc1 (stereo unspecified)", "inhibition", "12%"],
  ["CCOC(=O)C1=C(c2ccoc2)N=C(C)/C(=C(/O)OCC)C1/C=C/c1ccccc1 (stereo unspecified)", "inhibition", "35%"],
  ["CCOC(=O)C1=C(C)NC(C)=C(C(=O)OCc2ccccc2)C1/C=C/c1ccccc1 (stereo unspecified)", "inhibition", "14%"],
  ["CCOC(=O)C1=C(c2ccccc2)N=C(C)/C(=C(/O)OCc2ccccc2)C1/C=C/c1ccc([N+](=O)[O-])cc1 (stereo unspecified)", "inhibition", "< 10%"],
  ["CCOC(=O)C1=C(c2ccccc2)N=C(C)/C(=C(/O)OCC)C1/C=C/c1ccccc1OC (stereo unspecified)", "inhibition", "17%"],
  ["CCOC(=O)C1=C(c2ccccc2)N=C(C)/C(=C(/O)OCC)C1/C=C/c1ccc([N+](=O)[O-])cc1 (stereo unspecified)", "inhibition", "33%"],
  ["CCOC(=O)C1=C(c2ccccc2)N=C(C)/C(=C(/O)OCC)C1/C=C/c1ccccc1[N+](=O)[O-] (stereo unspecified)", "inhibition", "< 10%"]
]}

Taken from ChEMBL document CHEMBL1129404.
